Data provenance: patent US10865208B2

Provide the reported inhibition at 0.123 µM of each item.
system: recombinant human His-ATG7 enzyme (Homo sapiens (Human), UniProt O95352)
Sequence (O95352 whole entry): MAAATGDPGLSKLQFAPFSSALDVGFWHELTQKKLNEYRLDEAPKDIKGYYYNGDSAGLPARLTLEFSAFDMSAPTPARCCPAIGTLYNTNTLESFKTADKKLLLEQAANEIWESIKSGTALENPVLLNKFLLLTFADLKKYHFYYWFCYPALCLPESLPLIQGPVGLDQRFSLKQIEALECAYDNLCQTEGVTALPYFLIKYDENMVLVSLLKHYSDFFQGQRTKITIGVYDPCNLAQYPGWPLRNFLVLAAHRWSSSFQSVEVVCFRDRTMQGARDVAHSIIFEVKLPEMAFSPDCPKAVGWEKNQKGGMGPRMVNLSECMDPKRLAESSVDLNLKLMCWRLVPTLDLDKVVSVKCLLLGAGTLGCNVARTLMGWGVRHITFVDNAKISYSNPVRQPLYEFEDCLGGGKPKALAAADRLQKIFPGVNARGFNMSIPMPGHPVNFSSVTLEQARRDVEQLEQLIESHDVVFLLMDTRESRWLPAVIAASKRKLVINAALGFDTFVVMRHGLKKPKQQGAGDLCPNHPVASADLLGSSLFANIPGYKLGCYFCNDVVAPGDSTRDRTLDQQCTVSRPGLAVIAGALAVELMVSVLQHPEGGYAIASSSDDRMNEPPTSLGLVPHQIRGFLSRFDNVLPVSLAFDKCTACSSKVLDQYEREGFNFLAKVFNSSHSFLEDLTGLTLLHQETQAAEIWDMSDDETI
assay-notes: ATG7 Enzyme Assay (HTRF/FRET, ATG3-GST and Flag-Gabarap)
Type: biochemical
condition: Concentration 0.123 μM; read-out: Percent Inhibition
In your response, the unit should come after the numeric value.

Below, each entry is followed by its recorded inhibition at 0.123 µM result.
| molecule | inhibition at 0.123 µM |
| --- | --- |
| CC1OCCC1Sc1nn([C@@H]2O[C@H](COS(N)(=O)=O)[C@@H](O)[C@H]2O)c2ncnc(N)c12 (stereo partly shown) [Compound I-92] | 50% |
| Nc1ncnc2c1c(SCc1cccc(F)c1)nn2[C@@H]1O[C@H](COS(N)(=O)=O)[C@@H](O)[C@H]1O [Compound I-44] | 84% |
| Nc1ncnc2c1c(SC(F)F)nn2[C@@H]1O[C@H](COS(N)(=O)=O)[C@@H](O)[C@H]1O [Compound I-85] | 77% |
| Nc1ncnc2c1c(SCC1=CCCCC1)nn2[C@@H]1O[C@H](COS(N)(=O)=O)[C@@H](O)[C@H]1O [Compound I-91] | 76% |

Dear colleague, could you please provide inhibition at 0.123 µM for the molecules listed below?
1. Nc1ncnc2c1c(SCCc1ccccc1)nn2[C@@H]1O[C@H](COS(N)(=O)=O)[C@@H](O)[C@H]1O [Compound I-88]
2. CC(C)Sc1nn([C@H]2C[C@H](O)[C@@H](COS(N)(=O)=O)O2)c2ncnc(N)c12 [Compound I-181]
3. C=Cc1nn([C@@H]2O[C@H](COS(N)(=O)=O)[C@@H](O)[C@H]2O)c2ncnc(N)c12 [Compound I-18]

Result:
1: 78%; 2: 81%; 3: 62%

----------
Provide the reported pIC50 of each item.
system: recombinant human His-ATG7 enzyme (Homo sapiens (Human), UniProt O95352)
assay-notes: ATG7 Enzyme Assay (HTRF/FRET, ATG3-GST and Flag-Gabarap)
pIC50: −log10 of the molar value.

Below, each entry is followed by its recorded pIC50 result.
| compound | result |
| --- | --- |
| CC(Sc1nn([C@@H]2O[C@H](COS(N)(=O)=O)[C@@H](O)[C@H]2O)c2ncnc(N)c12)c1ccccc1 (mixture of isomers) | 7.00 to 7.30 |
| N#CCc1nn([C@@H]2O[C@H](COS(N)(=O)=O)[C@@H](O)[C@H]2O)c2ncnc(N)c12 | < 6.30 |
| CSCc1nn([C@@H]2O[C@H](COS(N)(=O)=O)[C@@H](O)[C@H]2O)c2ncnc(N)c12 | 6.30 to 7.00 |
| CC(Sc1nn([C@@H]2O[C@H](COS(N)(=O)=O)[C@@H](O)[C@@H]2F)c2ncnc(N)c12)C(F)(F)F (mixture of isomers) | < 6.30 |

Dear colleague, could you please provide pIC50 for the compounds listed below?
1. CN(C)CCSc1nn([C@@H]2O[C@H](COS(N)(=O)=O)[C@@H](O)[C@H]2O)c2ncnc(N)c12
2. COc1ccc(CSc2nn([C@@H]3O[C@H](COS(N)(=O)=O)[C@@H](O)[C@H]3O)c3ncnc(N)c23)cc1

Result:
1: 6.30 to 7.00; 2: 7.30 to 7.70
